Data provenance: patent US20170022281A1

What Baf3-mPRLR proliferation IC50 was measured for each of the following?
# TARGET_OR_TEST_SYSTEM: T1, mouse PRLR on Baf3-mPRLR cells (mouse, UniProt Q08501 20-608)
# T1 sequence (looked up): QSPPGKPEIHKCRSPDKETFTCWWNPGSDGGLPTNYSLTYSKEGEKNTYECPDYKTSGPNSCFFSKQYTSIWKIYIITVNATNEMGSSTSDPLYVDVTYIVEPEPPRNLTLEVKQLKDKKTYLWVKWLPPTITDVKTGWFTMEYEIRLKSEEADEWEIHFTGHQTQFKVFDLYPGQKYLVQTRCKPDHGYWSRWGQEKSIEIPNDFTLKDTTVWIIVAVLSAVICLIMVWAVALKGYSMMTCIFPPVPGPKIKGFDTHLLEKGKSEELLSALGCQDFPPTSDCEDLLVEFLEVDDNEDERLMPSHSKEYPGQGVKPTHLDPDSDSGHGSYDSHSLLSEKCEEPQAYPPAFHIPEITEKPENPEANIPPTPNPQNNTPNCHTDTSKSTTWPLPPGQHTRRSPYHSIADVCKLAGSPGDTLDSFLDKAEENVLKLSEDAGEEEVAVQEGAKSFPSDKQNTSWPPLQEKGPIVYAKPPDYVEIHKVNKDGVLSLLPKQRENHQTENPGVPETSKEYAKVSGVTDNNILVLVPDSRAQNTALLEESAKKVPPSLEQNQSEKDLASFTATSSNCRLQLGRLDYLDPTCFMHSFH
# TEST_METHOD_NOTES: cell-based or functional assay

Past entries and their recorded results:
INSERT INTO results (binder, assay_readout, result) VALUES
  ('Ab50 (antibody, human IgG1, kappa, V domains shown, humanized from Ab8; G1; also called Ab3 HC.1b and Ab3 LC.1) VH: EVQLVQSGAEVKKPGASVKVSCKASGYTFTDYNIHWVRQAPGQGLEWIGYIYPNNDGTGYAQKLQGRVTMTVDTSTSTAYMELRSLRSDDTAVYYCARGDGNYVGDMDYWGQGTTVTVSS VL: DIQMTQSPSSLSASVGDRVTITCRASENIYSYLAWYQQKPGKAPKLLIYNAKTLAEGVPSRFSGSGSGTDFTLTISSLQPEDFATYYCQHHYATPFTFGQGTKLEIKR', 'Baf3-mPRLR proliferation IC50', '> 30 µg/mL'),
  ('Ab45 (antibody, human IgG1, kappa, V domains shown, humanized from Ab8; G1; also called Ab3 HC.1 and Ab3 LC.1a) VH: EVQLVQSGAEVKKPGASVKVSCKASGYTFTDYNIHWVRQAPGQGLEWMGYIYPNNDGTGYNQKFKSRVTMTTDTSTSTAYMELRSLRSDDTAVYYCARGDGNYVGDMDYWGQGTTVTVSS VL: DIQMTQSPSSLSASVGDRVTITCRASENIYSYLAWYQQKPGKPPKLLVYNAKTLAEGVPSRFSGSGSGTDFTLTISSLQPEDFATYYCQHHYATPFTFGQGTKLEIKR', 'Baf3-mPRLR proliferation IC50', '> 30 µg/mL');

State the recorded Baf3-mPRLR proliferation IC50 for this entry: Ab16 (antibody, human IgG1, kappa, V domains shown, humanized from Ab6; G1; also called Ab1 HC.1 and Ab1 LC.2) VH: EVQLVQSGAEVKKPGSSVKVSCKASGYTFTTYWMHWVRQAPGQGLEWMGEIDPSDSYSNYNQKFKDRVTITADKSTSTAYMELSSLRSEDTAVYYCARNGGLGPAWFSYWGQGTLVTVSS VL: EIVMTQSPATLSVSPGERATLSCKASQYVGTAVAWYQQKPGQAPRLLIYSASNRYTGIPARFSGSGSGTEFTLTISSLQSEDFAVYYCQQYSSYPWTFGGGTKVEIKR
> 30 µg/mL
